Test: gradient 5% acetonitrile 3 min, to 50% in 2 min, to 85% in 15 min, held 3 min, 100 µL/min
Conditions: column: Zorbax Extend-C18 2.1 x 50 mm; eluents: water / acetonitrile, 0.1% formic acid
readout-name: RP-LC retention time (s)

Sample answers from the record:
[
  {
    "compound": "COc1ccccc1-c1noc(C2CCCN2C(=O)c2cc(F)ccc2F)n1 (stereo not given)",
    "readout-name": "RP-LC retention time",
    "readout-number": 968
  },
  {
    "compound": "Cc1nc2cccnc2n1CC1CCCN(S(=O)(=O)c2cccc(Br)c2)C1 (stereo not given)",
    "readout-name": "RP-LC retention time",
    "readout-number": 735
  },
  {
    "compound": "COc1cccc(-n2c(=O)c3sccc3n(Cc3nc(-c4ccccc4)no3)c2=O)c1",
    "readout-name": "RP-LC retention time",
    "readout-number": 956
  }
]

1 = COc1cccc(Cn2c(C)c(CNCc3cccnc3)c(C(=O)O)c2C)c1
2 = O=C(Nc1ccc(F)cc1)N1CCc2nc(-c3ccc(Cl)cc3)ncc2C1
Which entry has a larger number for RP-LC retention time, 1 or 2 ? Provide the label of your selected option as the answer. 2
(2: 1010 s, 1: 625 s)
